MEASUREMENT_PROTOCOL: Pharmacokinetic assay in rat
Assay type: in vivo, SD rats
PROTOCOL_CONDITIONS: rat, plasma, po; male SD rats, intragastric administration, 10 mg/kg
Below, each entry is listed alongside its reported AUC(0-t).
Quick reminder: number only, in ng·h/mL, skip the unit.

Prompt: What value of AUC(0-t) has been reported for the following compound? Cc1cnc(-c2cc(O[C@@H]3CCOC3)cc(C(=O)N[C@H](C)c3cnc(C(F)(F)F)nc3)c2)s1 [Reference compound 1, reference compound]
Completion: 3330

As a next step, examine the compound that follows.
Prompt: What value of AUC(0-t) has been reported for the following compound? Cc1cnc(-c2cc(O[C@@H]3CCOC3)cc(C(=O)N[C@H](C)c3cnc(C(F)(F)F)nc3)c2F)s1 [Compound I-1]
Completion: 5940

----------
Below, each entry is listed alongside its reported pIC50.
ASSAYED_TARGET: UniProt:P56373
Sequence (P56373 whole entry): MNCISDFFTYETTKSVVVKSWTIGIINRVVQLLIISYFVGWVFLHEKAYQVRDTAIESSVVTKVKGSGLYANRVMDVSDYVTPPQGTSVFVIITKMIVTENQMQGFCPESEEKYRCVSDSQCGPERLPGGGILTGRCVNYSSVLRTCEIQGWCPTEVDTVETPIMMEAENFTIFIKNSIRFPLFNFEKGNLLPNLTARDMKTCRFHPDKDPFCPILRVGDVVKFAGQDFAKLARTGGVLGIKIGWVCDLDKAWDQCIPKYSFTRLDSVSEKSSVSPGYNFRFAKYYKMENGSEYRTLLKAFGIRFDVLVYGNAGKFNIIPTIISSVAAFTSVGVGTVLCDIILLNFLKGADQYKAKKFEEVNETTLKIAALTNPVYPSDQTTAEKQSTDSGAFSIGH
MEASUREMENT_PROTOCOL: Antagonistic activity against hP2X3 receptor by FLIPR calcium flow assay
PROTOCOL_CONDITIONS: human cells stably transfected with hP2X3; agonist α,β-meATP 400 nM
pIC50 (log units): -log10 of the concentration in mol/L.

Prompt: What value of pIC50 has been reported for the following molecule? Cc1cnc(-c2cc(OC3CCNCC3)cc(C(=O)N[C@H](C)c3cnc(C(F)(F)F)nc3)c2F)s1
Completion: 6.41

Prompt: Same for Cc1cnc(-c2cc(C(=O)N[C@H](C)c3cnc(C(F)(F)F)nc3)cc(O[C@@H]3CCOC3)c2F)s1
Completion: 6.77

Prompt: Same for [2H]C([2H])([2H])N1CCO[C@@H](COc2cc(C(=O)N[C@H](C)c3cnc(C(F)(F)F)nc3)c(F)c(-c3ncc(C)s3)c2)C1
Completion: 6.43

----------
MEASUREMENT_PROTOCOL: Pharmacokinetic assay in mouse
Format: in vivo, ICR mice
PROTOCOL_CONDITIONS: mouse, plasma, po; male ICR mice, intragastric administration, 10 mg/kg
READOUT_NAME: Cmax (ng/mL)
Quick reminder: number only, in ng/mL, skip the unit.

Prompt: What value of Cmax has been reported for the following compound? Cc1cnc(-c2cc(O[C@H](C)[C@H](C)O)cc(C(=O)N[C@H](C)c3cnc(C(F)(F)F)nc3)c2F)s1
Completion: 4100

Prompt: Same for Cc1cnc(-c2cc(O[C@@H](C)[C@H](C)O)cc(C(=O)N[C@H](C)c3cnc(C(F)(F)F)nc3)c2F)s1
Completion: 2400

Prompt: Same for Cc1cnc(-c2cc(O[C@@H]3CCOC3)cc(C(=O)N[C@H](C)c3cnc(C(F)(F)F)nc3)c2F)s1
Completion: 1550

Further cases:
Prompt: What value of Cmax has been reported for the following compound? Cc1cnc(-c2cc(O[C@H](C)[C@@H](C)O)cc(C(=O)N[C@H](C)c3cnc(C(F)(F)F)nc3)c2F)s1
Completion: 2950

----------
MEASUREMENT_PROTOCOL: Pharmacokinetic assay in mouse
Format: in vivo, ICR mice
PROTOCOL_CONDITIONS: mouse, plasma, po; male ICR mice, intragastric administration, 10 mg/kg; read-out: T½ (converted)
Below, each entry is listed alongside its reported half-life.
Quick reminder: number only, in h, skip the unit.

Prompt: What value of half-life has been reported for the following compound? Cc1cnc(-c2cc(O[C@H](C)[C@H](C)O)cc(C(=O)N[C@H](C)c3cnc(C(F)(F)F)nc3)c2F)s1
Completion: 2.23

Prompt: Same for Cc1cnc(-c2cc(O[C@@H](C)[C@H](C)O)cc(C(=O)N[C@H](C)c3cnc(C(F)(F)F)nc3)c2F)s1
Completion: 2.65

Prompt: Same for Cc1cnc(-c2cc(O[C@@H]3CCOC3)cc(C(=O)N[C@H](C)c3cnc(C(F)(F)F)nc3)c2F)s1
Completion: 2.3

As a next step, examine the compound that follows.
Prompt: What value of half-life has been reported for the following compound? Cc1cnc(-c2cc(O[C@H](C)[C@@H](C)O)cc(C(=O)N[C@H](C)c3cnc(C(F)(F)F)nc3)c2F)s1
Completion: 2.35
